System: CCRIS mutagenicity, Ames/micronucleus/aberration tests
Assay: CCRIS mutagenicity studies
Conditions: Test System: AMES SALMONELLA TYPHIMURIUM; Strain/Indicator: TA1535; Metabolic Activation: HAMSTER, LIVER, S-9, AROCLOR 1254; Method: STANDARD PLATE
Active and inactive are the calls of the source. The rule behind the calls is not given here.
Response enum: active, inactive

Below, 2 compounds whose answers are already recorded.
compound: O=C(O)c1cc(=O)c2c(OCC(O)COc3cccc4oc(C(=O)O)cc(=O)c34)cccc2o1
answerLabel: inactive

compound: Nc1ncnc2c1ncn2[C@H]1CC[C@@H](CO)O1
answerLabel: inactive

Read the next record carefully.
What did the test return for `CCOC(=O)CC(=O)CCl` ?
inactive

Origin of measurements: PubChem BioAssay AID1259407
